# TESTED ON: SPOP mutBACK (SPOP 28–359 Y353E) (UniProt O43791 28-359, Y353E)
# Sequence (O43791 28-359 Y353E): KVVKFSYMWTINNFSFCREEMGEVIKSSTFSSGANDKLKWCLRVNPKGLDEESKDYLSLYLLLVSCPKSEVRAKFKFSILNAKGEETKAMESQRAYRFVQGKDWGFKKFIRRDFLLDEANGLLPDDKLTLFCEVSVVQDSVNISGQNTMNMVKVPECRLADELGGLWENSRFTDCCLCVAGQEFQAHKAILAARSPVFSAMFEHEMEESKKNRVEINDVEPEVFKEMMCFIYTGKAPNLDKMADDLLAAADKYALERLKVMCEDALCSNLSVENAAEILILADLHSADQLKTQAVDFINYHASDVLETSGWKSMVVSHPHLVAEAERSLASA
# ASSAY REMARKS: fluorescence polarisation
pKd: −log10 of the molar value. Where no end group is shown, it is not given here.

- BINDER: "ENLACDEVTSTTSSSST-NH2 (not fully specified (N-terminus)) [Puc peptide, residues 91–107 of Puckered, fluorescein-labelled]"
  pKd: 5.39
